Listed here are compounds together with their documented % activation functional assay at 1 μM.
target: Human opiate κ receptors (Homo sapiens, UniProt P41145); experiment: κ opioid receptor functional assay, [35S]GTPγS binding (assay C); assay type: biochemical
Sequence (P41145 whole entry): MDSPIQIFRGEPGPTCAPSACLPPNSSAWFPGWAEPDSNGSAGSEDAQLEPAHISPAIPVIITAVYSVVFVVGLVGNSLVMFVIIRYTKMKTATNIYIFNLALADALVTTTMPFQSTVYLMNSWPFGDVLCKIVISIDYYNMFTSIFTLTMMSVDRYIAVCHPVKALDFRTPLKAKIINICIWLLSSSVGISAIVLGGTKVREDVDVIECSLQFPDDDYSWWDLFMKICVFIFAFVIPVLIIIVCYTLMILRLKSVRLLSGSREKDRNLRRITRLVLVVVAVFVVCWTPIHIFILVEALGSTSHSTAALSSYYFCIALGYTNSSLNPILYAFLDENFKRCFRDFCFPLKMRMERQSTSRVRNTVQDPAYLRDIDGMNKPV
Measured quantity: % activation functional assay at 1 μM (%)

| Compound | Value |
| --- | --- |
| COC(=O)N1CCN(C(=O)Cc2ccc(Cl)c(F)c2)C2C(N3CCC(O)C3)CCCC21.Cl (stereo not shown) | 103 |
| COC(=O)N1CCN(C(=O)Cc2ccc(F)c(Cl)c2)[C@@H]2[C@@H](N3CC[C@H](F)C3)CCC[C@@H]21 | 92 |
| O=C(Cc1ccc(F)c(F)c1)N1CCN(S(=O)(=O)Cc2ccon2)[C@H]2CCC[C@H](N3CC[C@H](O)C3)[C@H]21 | 97 |
| CC(C)OC(=O)C(=O)N1CCN(C(=O)Cc2ccc(Cl)c(Cl)c2)[C@@H]2[C@@H](N3CCCC3)CCC[C@@H]21.Cl | 99 |

---

We begin with a simple list: items and their reported pEC50.
target: UniProtKB P41145; test: κ opioid receptor functional assay, [35S]GTPγS binding (assay C); format: biochemical; conditions: read-out: GTPγS EC50
pEC50: −log10 of the molar value.
Measured quantity: pEC50

| Compound | Tested system | Measured quantity | Value |
| --- | --- | --- | --- |
| CCCNS(=O)(=O)N1CCN(C(=O)Cc2ccc(Cl)c(Cl)c2)C2C(N3CCC(O)C3)CCCC21.Cl (stereo not shown) [Example 133] | UniProtKB P41145 | pEC50 | > 8.00 |
| COC(=O)N1CCN(C(=O)Cc2ccc(F)c(Cl)c2)C2C(N3CCC(O)C3)CCCC21.Cl (stereo not shown) [Example 110] | UniProtKB P41145 | pEC50 | 7.00 to 8.00 |
| O=C(Cc1ccc(Cl)c(Cl)c1)N1CCN(S(=O)(=O)N2CCOCC2)[C@H]2CCC[C@H](N3CC[C@H](O)C3)[C@H]21 [Example 137] | UniProtKB P41145 | pEC50 | > 8.00 |
| COC(=O)c1ccc(C(=O)N2CCN(C(=O)Cc3ccc(Cl)c(Cl)c3)[C@@H]3[C@@H](N4CCCC4)CCC[C@@H]32)cc1.Cl [Example 114] | UniProtKB P41145 | pEC50 | 7.00 to 8.00 |

---

molecular target: Human opiate κ receptors (Homo sapiens, UniProt P41145); experiment: κ opioid receptor functional assay, [35S]GTPγS binding (assay C); assay type: biochemical; details: 0.5 h, read-out: % activation functional assay at 1 μM

| Molecule | Unit label | activation at 1 µM |
| --- | --- | --- |
| COC(=O)N1CCN(C(=O)Cc2ccc(Cl)cc2)[C@@H]2[C@@H](N3CC[C@H](O)C3)CCC[C@@H]21 | % | 103 |
| COC(=O)COC(=O)N1CCN(C(=O)Cc2ccc(Cl)c(Cl)c2)[C@@H]2[C@@H](N3CC[C@@H](O)C3)CCC[C@@H]21 | % | 116 |
| COC(=O)N1CCN(C(=O)Cc2ccc(Cl)c(F)c2)[C@@H]2[C@@H](N3CCCC3)CCC[C@@H]21 | % | 103 |
| COC(=O)N1CCN(C(=O)Cc2ccc(Cl)c(Cl)c2)[C@H]2[C@H](N3CCCC3)CCC[C@H]21 (single isomer, unassigned) [Reference compound A, reference compound] | % | 51 |
| O=C(C1CCC1)N1CCN(C(=O)Cc2ccc(Cl)c(Cl)c2)C2C(N3CCCC3)CCCC21 (racemic) | % | 103 |
| COC(=O)N1CCN(C(=O)Cc2ccc(Cl)c(F)c2)[C@@H]2[C@@H](N3CC[C@H](O)C3)CCC[C@@H]21 | % | 93 |
| COC(=O)N1CCN(C(=O)Cc2ccc(C(F)(F)F)c(Cl)c2)[C@@H]2[C@@H](N3CCCC3)CCC[C@@H]21 | % | 101 |
| COC(=O)N1CCN(C(=O)Cc2cc(Cl)c3c(c2)OCCO3)C2C(N3CCCC3)CCCC21 (racemic) | % | 101 |
| COC(=O)N1CCN(C(=O)Cc2ccc(Cl)c(Cl)c2)[C@@H]2[C@@H](N3CC[C@H](O)C3)CCC[C@@H]21 | % | 113 |
| COC(=O)COC(=O)N1CCN(C(=O)Cc2ccc(Cl)c(Cl)c2)[C@@H]2[C@@H](N3CCCC3)CCC[C@@H]21 | % | 99 |
| COC(=O)N1CCN(C(=O)Cc2ccc(C(F)(F)F)cc2)C2C1CCCC2N(C)C(C)C (racemic) | % | 104 |
| O=C(C1CCCN1)N1CCN(C(=O)Cc2ccc(Cl)c(Cl)c2)C2C(N3CCCC3)CCCC21 (racemic) | % | 76 |
| NC(=O)COC(=O)N1CCN(C(=O)Cc2ccc(Cl)c(Cl)c2)C2C(N3CCCC3)CCCC21 (racemic) | % | 104 |
| CCN(C)C1CCCC2C1N(C(=O)Cc1ccc(Cl)c(Cl)c1)CCN2C(=O)OC (racemic) | % | 91 |

---

activation at 1 µM reference
target: Human opiate κ receptors (Homo sapiens, UniProt P41145); assay: κ opioid receptor functional assay, [35S]GTPγS binding (assay C); type: biochemical; conditions: 0.5 h, read-out: % activation functional assay at 1 μM

| Compound | Unit label | activation at 1 µM |
| --- | --- | --- |
| O=C(C=Cc1ccoc1)N1CCN(C(=O)Cc2ccc(Cl)c(Cl)c2)C2C(N3CCCC3)CCCC21 (racemic) [Example 79] | % | 102 |
| O=C(C1COC1)N1CCN(C(=O)Cc2ccc(Cl)c(Cl)c2)C2C(N3CCCC3)CCCC21 (racemic) [Example 54] | % | 104 |
| O=C(Cc1ccc(Cl)c(Cl)c1)N1CCN(C(=O)OCc2ccccc2)[C@H]2CCC[C@H](N3CCCC3)[C@H]21 (racemic) [Example 16] | % | 102 |
| COC(=O)c1ccc(C(=O)N2CCN(C(=O)Cc3ccc(Cl)c(Cl)c3)C3C(N4CCCC4)CCCC32)nc1 (racemic) [Example 85] | % | 101 |
| COC(=O)N1CCN(C(=O)Cc2ccc(Cl)c(Cl)c2)[C@@H]2[C@@H](N3CC[C@@H](O)C3)CCC[C@@H]21 [Example 96] | % | 109 |
| CN(C)C(=O)N1CCN(C(=O)Cc2ccc(Cl)c(Cl)c2)C2C(N3CCCC3)CCCC21 (racemic) [Example 34] | % | 107 |
| COC(=O)N1CCN(C(=O)Cc2cccc(Cl)c2)[C@@H]2[C@@H](N3CC[C@H](O)C3)CCC[C@@H]21 [Example 143] | % | 102 |
| CN(C)S(=O)(=O)N1CCN(C(=O)Cc2ccc(Cl)c(Cl)c2)[C@@H]2[C@@H](N3CCCC3)CCC[C@@H]21 [Example 98] | % | 105 |
| COC(=O)N1CCN(C(=O)Cc2ccc(Cl)c(Cl)c2)[C@H]2[C@H](N3CCCC3)CCC[C@@H]21 (racemic) [Reference compound B, reference compound] | % | 90 |
| CN(C)S(=O)(=O)N1CCN(C(=O)Cc2ccc(Cl)c(Cl)c2)C2C(N3CCCC3)CCCC21 (racemic) [Example 35] | % | 108 |
| CNC(=O)N1CCN(C(=O)Cc2ccc(Cl)c(Cl)c2)C2C(N3CCCC3)CCCC21 (racemic) [Example 62] | % | 104 |
| COC(=O)CC(=O)N1CCN(C(=O)Cc2ccc(Cl)c(Cl)c2)C2C(N3CCCC3)CCCC21 (racemic) [Example 36] | % | 93 |
| O=C(Cc1ccc(Cl)c(Cl)c1)N1CCN(Cc2cnc[nH]2)C2CCCC(N3CCCC3)C21 (racemic) [Example 49] | % | 112 |
| COC(=O)COC(=O)N1CCN(C(=O)Cc2ccc(Cl)c(Cl)c2)[C@@H]2[C@@H](N3CC[C@H](O)C3)CCC[C@@H]21 [Example 106] | % | 92 |

---

target: Human opiate κ receptors (Homo sapiens); assay: κ opioid receptor functional assay, [35S]GTPγS binding (assay C); type: biochemical; settings: 0.5 h, read-out: % activation functional assay at 1 μM
Parameter: activation at 1 µM. Scope: all listed entries.
Measured quantity: activation at 1 µM (%)

| Compound | Measured quantity | Unit label | Value |
| --- | --- | --- | --- |
| O=C(Cc1ccc(Cl)c(Cl)c1)N1CCN(Cc2ccccc2)[C@H]2CCC[C@H](N3CCCC3)[C@H]21 (racemic) [Example 15] | activation at 1 µM | % | 89 |
| COC(=O)N1CCN(C(=O)Cc2ccc(Cl)c(Cl)c2)[C@@H]2[C@@H](N3CCCC3)CCC[C@@H]21 [Example 89] | activation at 1 µM | % | 107 |
| O=C(Cc1ccc(Cl)c(Cl)c1)N1CCN(Cc2cccnc2)C2CCCC(N3CCCC3)C21 (racemic) [Example 48] | activation at 1 µM | % | 100 |
| O=C(O)CNC(=O)N1CCN(C(=O)Cc2ccc(Cl)c(Cl)c2)C2C(N3CCCC3)CCCC21 (racemic) [Example 77] | activation at 1 µM | % | 98 |
| COC(=O)N1CCN(C(=O)Cc2ccc(F)c(Cl)c2)C2C(N3CCCC3)CCCC21 (racemic) [Example 20] | activation at 1 µM | % | 96 |
| NC(=O)CNC(=O)N1CCN(C(=O)Cc2ccc(Cl)c(Cl)c2)C2C(N3CCCC3)CCCC21 (racemic) [Example 76] | activation at 1 µM | % | 106 |
| O=C(c1ccccn1)N1CCN(C(=O)Cc2ccc(Cl)c(Cl)c2)C2C(N3CCCC3)CCCC21 (racemic) [Example 32] | activation at 1 µM | % | 88 |
| COC(=O)N1CCN(C(=O)Cc2ccc(F)c(Cl)c2)[C@@H]2[C@@H](N3CC[C@H](O)C3)CCC[C@@H]21 [Example 109] | activation at 1 µM | % | 110 |
| COC(=O)N1CCN(C(=O)Cc2ccc(C(F)(F)F)c(F)c2)[C@@H]2[C@@H](N3CC[C@H](O)C3)CCC[C@@H]21 [Example 141] | activation at 1 µM | % | 99 |
| COC(=O)C(=O)N1CCN(C(=O)Cc2ccc(Cl)c(Cl)c2)C2C(N3CCCC3)CCCC21 (racemic) [Example 65] | activation at 1 µM | % | 104 |
| NC(=O)c1ccc(C(=O)N2CCN(C(=O)Cc3ccc(Cl)c(Cl)c3)C3C(N4CCCC4)CCCC32)cc1 (racemic) [Example 87] | activation at 1 µM | % | 109 |
| CS(=O)(=O)N1CCN(C(=O)Cc2ccc(Cl)c(Cl)c2)[C@@H]2[C@@H](N3CCCC3)CCC[C@@H]21 [Example 102] | activation at 1 µM | % | 106 |
| COC(=O)N1CCN(C(=O)Cc2ccc(F)c(OC)c2)C2C(N3CCCC3)CCCC21 (racemic) [Example 21] | activation at 1 µM | % | 103 |
| COC(=O)N1CCN(C(=O)Cc2ccc3ccccc3c2)C2C(N3CCCC3)CCCC21 (racemic) [Example 10] | activation at 1 µM | % | 100 |
